Test system: CAKI-1
Assay: NCI tumour cell line growth inhibition, 48 h
Calls of active or inactive are those of the source. Rule as the data show it: active = GI50 up to about 1.1 µM and inactive = higher.
So I've got a bunch of compounds here, and I need their GI50 values.

// below: answered compounds
INSERT INTO measurements (compound, measurement_type, recorded_result) VALUES
  ('O=C(Nc1ccc(Nc2ccc(NC(=O)c3ccccc3)c3c2C(=O)c2ccccc2C3=O)c2c1C(=O)c1ccccc1C2=O)c1ccccc1', 'GI50', '> 100 µM (inactive)'),
  ('N#CCN1CCN(CC#N)CCN(CC#N)CCN(CC#N)CC1', 'GI50', '> 100 µM (inactive)'),
  ('CC1(C)CC(N(C(=O)/C=C/c2ccc([N+](=O)[O-])o2)C2CCCCC2)CC(C)(C)N1', 'GI50', '5.52 µM (inactive)');

The record that follows has no GI50 shown yet.
Query: Quick one: GI50 for CCOC(=O)C1=C(C)N(c2ccccc2)C2=C(C(=O)N(c3ccccc3)C2c2ccccc2)C1c1ccccc1 (centres undefined) ?
Reply: > 100 µM (inactive)
